TARGET_OF_ASSAY: Porcine Ventricle myofibrils (left ventricle of Yucatan minipigs) (Sus scrofa, UniProt P79293)
Construct: Myofibrils from porcine cardiac muscle was isolated from the left ventricle of Yucatan minipigs; tissue Exemplar Genetics; host or cells: left ventricle of Yucatan minipigs
Sequence (P79293 whole entry): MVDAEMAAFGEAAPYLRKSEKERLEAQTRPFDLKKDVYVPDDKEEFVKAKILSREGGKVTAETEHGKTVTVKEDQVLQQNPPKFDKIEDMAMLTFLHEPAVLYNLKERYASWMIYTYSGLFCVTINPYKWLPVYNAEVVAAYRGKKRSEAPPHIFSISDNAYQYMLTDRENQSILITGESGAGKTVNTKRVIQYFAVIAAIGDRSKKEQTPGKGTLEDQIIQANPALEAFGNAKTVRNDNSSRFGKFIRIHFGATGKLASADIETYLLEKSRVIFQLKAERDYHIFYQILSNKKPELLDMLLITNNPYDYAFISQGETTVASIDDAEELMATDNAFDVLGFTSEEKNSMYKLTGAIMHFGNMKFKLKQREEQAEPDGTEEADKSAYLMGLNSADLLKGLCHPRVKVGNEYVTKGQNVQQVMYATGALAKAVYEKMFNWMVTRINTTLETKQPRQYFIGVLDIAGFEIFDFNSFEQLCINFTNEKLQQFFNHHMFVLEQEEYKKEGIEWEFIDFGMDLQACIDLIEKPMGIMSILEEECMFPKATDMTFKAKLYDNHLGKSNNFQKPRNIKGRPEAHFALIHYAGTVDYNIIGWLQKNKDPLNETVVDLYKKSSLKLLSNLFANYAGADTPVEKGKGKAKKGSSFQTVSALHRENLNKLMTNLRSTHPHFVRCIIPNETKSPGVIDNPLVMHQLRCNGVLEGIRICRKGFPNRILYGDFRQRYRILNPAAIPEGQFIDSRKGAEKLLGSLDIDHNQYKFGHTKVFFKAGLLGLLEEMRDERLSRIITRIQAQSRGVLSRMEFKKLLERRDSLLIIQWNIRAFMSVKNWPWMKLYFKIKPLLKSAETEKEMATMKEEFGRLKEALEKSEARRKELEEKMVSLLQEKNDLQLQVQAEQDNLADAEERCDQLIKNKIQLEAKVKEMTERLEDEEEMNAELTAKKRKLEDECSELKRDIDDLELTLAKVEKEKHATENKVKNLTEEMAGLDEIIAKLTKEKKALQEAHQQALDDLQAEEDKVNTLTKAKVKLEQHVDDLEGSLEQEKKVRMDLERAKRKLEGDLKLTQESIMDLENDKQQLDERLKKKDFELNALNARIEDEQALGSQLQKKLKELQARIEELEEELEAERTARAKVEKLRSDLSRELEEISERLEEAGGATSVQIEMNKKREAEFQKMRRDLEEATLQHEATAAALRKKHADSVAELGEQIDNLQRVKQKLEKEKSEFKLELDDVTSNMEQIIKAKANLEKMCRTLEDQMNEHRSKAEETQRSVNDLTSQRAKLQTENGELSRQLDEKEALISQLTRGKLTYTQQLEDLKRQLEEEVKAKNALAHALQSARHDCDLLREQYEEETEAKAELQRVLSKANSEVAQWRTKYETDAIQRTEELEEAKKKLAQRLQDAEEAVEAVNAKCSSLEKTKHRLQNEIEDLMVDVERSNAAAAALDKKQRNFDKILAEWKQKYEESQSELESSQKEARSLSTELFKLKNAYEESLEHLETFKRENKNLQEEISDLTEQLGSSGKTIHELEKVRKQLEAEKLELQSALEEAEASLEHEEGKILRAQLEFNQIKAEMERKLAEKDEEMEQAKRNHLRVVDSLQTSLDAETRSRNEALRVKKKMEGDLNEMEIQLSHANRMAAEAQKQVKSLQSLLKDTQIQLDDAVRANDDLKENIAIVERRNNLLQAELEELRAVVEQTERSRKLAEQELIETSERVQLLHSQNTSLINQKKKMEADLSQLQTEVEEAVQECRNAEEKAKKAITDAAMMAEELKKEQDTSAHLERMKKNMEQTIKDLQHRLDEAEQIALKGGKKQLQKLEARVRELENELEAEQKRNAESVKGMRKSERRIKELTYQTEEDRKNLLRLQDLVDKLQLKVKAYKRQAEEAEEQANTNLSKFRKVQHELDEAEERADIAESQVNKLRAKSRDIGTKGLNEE
EXPERIMENTAL_DETAILS: Myofibril ATPase assay (PK/LDH NADH-coupled), ventricle myofibrils
Format: biochemical
SETTINGS: Table 8
Record form. Attribute: Porcine Ventricle IC25. Fill in for each entry.
Show the value, then the unit it is measured in.

[[record]]
smiles_str = "O=C(CN1Cc2c(ccc(F)c2F)NC1=O)N[C@@H]1COc2cc(F)cc(F)c21"
value_type = "Porcine Ventricle IC25"
experimental_value = "0.07766 µM"

[[record]]
smiles_str = "CCc1cc(F)cnc1[C@H](C)NC(=O)CN1Cc2c(ccc(F)c2F)NC1=O"
value_type = "Porcine Ventricle IC25"
experimental_value = "100 µM"

[[record]]
smiles_str = "C[C@@H](NC(=O)CN1Cc2c(ccc(F)c2F)NC1=O)c1ccncc1F"
value_type = "Porcine Ventricle IC25"
experimental_value = "100 µM"


Tell us which Porcine Ventricle IC25 value is on record for N#Cc1cc(F)c2c(c1)OC[C@H]2NC(=O)CN1C(=O)Nc2ccc(F)c(F)c2C12CC2 0.10 µM
